Values from patent US4091202A

// reported LD50 for each item listed
test: in vivo; details: mouse, iv
Where a name gives a salt, the structure may show the parent alone.

compound	LD50
O=S(=O)(O)C(NC[C@@H]1CC[C@@H](NC(c2ccccc2)S(=O)(=O)O)[C@@H](O[C@H]2[C@H](O)[C@@H](O[C@H]3O[C@H](CO)[C@@H](O)[C@H](NC(c4ccccc4)S(=O)(=O)O)[C@H]3O)[C@H](NC(c3ccccc3)S(=O)(=O)O)C[C@@H]2NC(c2ccccc2)S(=O)(=O)O)O1)c1ccccc1 (some centres unmarked) [sodium salt]	> 5000 mg/kg
O=S(=O)(O)CNC[C@@H]1CC[C@@H](NCS(=O)(=O)O)[C@@H](O[C@H]2[C@H](O)[C@@H](O[C@H]3O[C@H](CO)[C@@H](O)[C@H](NCS(=O)(=O)O)[C@H]3O)[C@H](NCS(=O)(=O)O)C[C@@H]2NCS(=O)(=O)O)O1 [DKB-penta-N-methanesulfonic acid Na salt, sodium salt]	> 5000 mg/kg
